The reported numbers originate from patent US20230131899A1.

Target: E. coli CsgA (Escherichia coli, UniProt P28307)
Construct: made in house; host or cells: E. coli NEB 3016 slyD::kan, pET11d
Sequence (P28307 23-151): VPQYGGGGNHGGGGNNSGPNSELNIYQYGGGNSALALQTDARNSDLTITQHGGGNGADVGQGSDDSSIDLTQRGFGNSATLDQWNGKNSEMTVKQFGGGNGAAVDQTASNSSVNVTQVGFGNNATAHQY
Test: In vitro ThioflavinT assay of CsgA aggregation (CsgA ThT Assay)
Format: biochemical
Details: read-out: CsgA ThT Assay (10 μM CsgA) % Control AUC at 1005 minutes, 25 μM, mean AUC as % of DMSO control; CsgA 10 μM, black plates; compound 25 μM; 1005 minutes
The label is t for remaining activity at 25 µM below 50% and f for remaining activity at 25 µM equal to or exceeding 50%.

{"compound": "Nc1c(Cc2cccc3ccccc23)c(-c2cccc(C(F)(F)F)c2)c2n(c1=O)C(C(=O)O)CN(CCCCCO)S2(=O)=O (stereo not shown)", "class assignment": "t"}
{"compound": "O=C(O)C1CN(C(CO)CO)S(=O)(=O)c2c(-c3cccc(C(F)(F)F)c3)c(Cc3cccc4ccccc34)cc(=O)n21 (stereo not shown)", "class assignment": "f"}
{"compound": "CCc1c(Cc2cccc3ccccc23)c(-c2cccc(C(F)(F)F)c2)c2n(c1=O)C(C(=O)O)CN(C(C)C)S2(=O)=O (stereo not shown)", "class assignment": "t"}
{"compound": "C=Cc1c(Cc2cccc3ccccc23)c(-c2cccc(C(F)(F)F)c2)c2n(c1=O)C(C(=O)O)CN(C)S2(=O)=O (stereo not shown)", "class assignment": "t"}
{"compound": "O=C(O)C1CSc2c(-c3cccc(C(F)(F)F)c3)c(Cc3cccc4ccccc34)cc(=O)n21 (single isomer, unassigned) [Compound 011a]", "class assignment": "t"}
{"compound": "O=C(O)C1CN(C[C@H](O)[C@@H](O)[C@H](O)[C@H](O)CO)S(=O)(=O)c2c(-c3cccc(C(F)(F)F)c3)c(Cc3cccc4ccccc34)cc(=O)n21 (mixture of isomers)", "class assignment": "f"}
{"compound": "O=C(O)C1CN(C(=O)OCc2ccccc2)c2c(-c3cccc(C(F)(F)F)c3)c(Cc3cccc4ccccc34)cc(=O)n21 (stereo not shown)", "class assignment": "f"}

---

Entries and their measured remaining activity at 100 µM follow.
Target: E. coli CsgA (Escherichia coli)
Construct: made in house; host or cells: E. coli NEB 3016 slyD::kan, pET11d
Assay: In vitro ThioflavinT assay of CsgA aggregation (CsgA ThT Assay)
Format: biochemical
Conditions: read-out: CsgA ThT Assay (2 μM CsgA) % Control Bmax 100 μM, activity range, class symbol; CsgA 2 μM, white plates; compound 100 μM

{"compound": "O=C(O)C1CN(Cc2ccccc2)c2c(-c3cccc(C(F)(F)F)c3)c(Cc3ccnc4ccccc34)c(Cl)c(=O)n21 (stereo not shown) [Compound 206]", "remaining activity at 100 µM": "31 to 60%"}
{"compound": "CC(C)CN1CC(C(=O)O)n2c1c(-c1cccc(C(F)(F)F)c1)c(Cc1cccc3ccccc13)c(Cl)c2=O (stereo not shown) [Compound 164]", "remaining activity at 100 µM": "31 to 60%"}
{"compound": "CCCCN1CC(C(=O)O)n2c1c(-c1cccc(C(F)(F)F)c1)c(Cc1cccc3ccccc13)c(Cl)c2=O (stereo not shown) [Compound 163]", "remaining activity at 100 µM": "31 to 60%"}
{"compound": "O=C(O)C1CN(Cc2ccccc2)c2c(-c3ccc(Br)cc3)c(Cc3cccc4ccccc34)c(Cl)c(=O)n21 (stereo not shown) [Compound 201]", "remaining activity at 100 µM": "31 to 60%"}
{"compound": "CCCN1CC(C(=O)O)n2c(cc(Cc3cccc4ccccc34)c(NC3CCCC3)c2=O)S1(=O)=O (stereo not shown) [Compound 006]", "remaining activity at 100 µM": "31 to 60%"}
{"compound": "CN(C)Cc1c(Cc2cccc3ccccc23)c(-c2cccc(C(F)(F)F)c2)c2n(c1=O)C(C(=O)O)CN2Cc1ccccc1 (stereo not shown) [Compound 204]", "remaining activity at 100 µM": "> 60%"}
{"compound": "O=C(O)C1CN(Cc2ccccc2)c2c(-c3cccc(C(F)(F)F)c3)c(C(F)(F)c3cccc4ccccc34)c(Br)c(=O)n21 (stereo not shown) [Compound 155]", "remaining activity at 100 µM": "> 60%"}

---

Molecular target: human α-synuclein (Homo sapiens)
Construct: the full-length gene for untagged human α-synuclein was inserted; made in house; host or cells: E. coli BL21(DE3), plasmid derived from pT7 or pET11a
Assay: Cell-free Thioflavin T assay of α-synuclein aggregation (αSyn ThT Assay)
Format: biochemical
Conditions: class symbol; αSyn 50 μM, compounds 100 μM; read-out: αSyn ThT Assay % inhibition, activity range

{"compound": "O=C(O)C1CN(CCCCCCCN2CC(C(=O)O)n3c2c(-c2cccc(C(F)(F)F)c2)c(Cc2cccc4ccccc24)c(Cl)c3=O)c2c(-c3cccc(C(F)(F)F)c3)c(Cc3cccc4ccccc34)c(Cl)c(=O)n21 (stereo not drawn)", "inhibition at 100 µM": "> 60%"}
{"compound": "CCCN1CC(C(=O)O)n2c(c(-c3cccc(C(F)(F)F)c3)c(Cc3cccc4ccccc34)c(N3CCCC3=O)c2=O)S1(=O)=O (stereo not drawn)", "inhibition at 100 µM": "> 60%"}
{"compound": "O=C(O)C1CN(Cc2ccccc2)c2c(-c3cccc(C(F)(F)F)c3)c(Cc3cccc4ccccc34)c(Br)c(=O)n21 (stereo not drawn)", "inhibition at 100 µM": "> 60%"}
{"compound": "CN(C)C(=O)c1c(Cc2cccc3ccccc23)c(-c2cccc(C(F)(F)F)c2)c2n(c1=O)C(C(=O)O)CN(C)S2(=O)=O (stereo not drawn)", "inhibition at 100 µM": "> 60%"}
{"compound": "CCCN1CC(C(=O)O)n2c(c(-c3cccc(C(F)(F)F)c3)c(Cc3cccc4ccccc34)c(O)c2=O)S1(=O)=O (stereo not drawn)", "inhibition at 100 µM": "> 60%"}
{"compound": "O=C(O)[C@@H]1CN(Cc2ccccc2)c2c(-c3cccc(C(F)(F)F)c3)c(Cc3cccc4ccccc34)c(Cl)c(=O)n21 (single isomer, unassigned) [Compound 004a]", "inhibition at 100 µM": "31 to 60%"}
{"compound": "CCCN1CC(C(=O)O)n2c(c(-c3cccc(C(F)(F)F)c3)c(Cc3cccc4ccccc34)c(OC3CCCC3)c2=O)S1(=O)=O (stereo not drawn)", "inhibition at 100 µM": "11 to 30%"}
{"compound": "NC(=O)c1c(Cc2cccc3ccccc23)c(-c2cccc(C(F)(F)F)c2)c2n(c1=O)C(C(=O)O)CN(C1CCCC1)S2(=O)=O (stereo not drawn)", "inhibition at 100 µM": "> 60%"}
{"compound": "O=C(O)C1CN(CCCCCO)c2c(-c3cccc(C(F)(F)F)c3)c(Cc3cccc4ccccc34)c(Cl)c(=O)n21 (stereo not drawn)", "inhibition at 100 µM": "11 to 30%"}

---

Molecular target: E. coli CsgA (Escherichia coli, UniProt P28307)
Construct: made in house; host or cells: E. coli NEB 3016 slyD::kan, pET11d
Test: In vitro ThioflavinT assay of CsgA aggregation (CsgA ThT Assay)
Type: biochemical
Settings: read-out: CsgA ThT Assay (10 μM CsgA) % Control AUC at 1005 minutes, 25 μM, mean AUC as % of DMSO control; CsgA 10 μM, black plates; compound 25 μM; 1005 minutes
# maps each entry to its remaining activity at 25 µM

{"compound": "Nc1c(Cc2cccc3ccccc23)c(-c2cccc(C(F)(F)F)c2)c2n(c1=O)C(C(=O)O)CN(CCO)S2(=O)=O (centres unmarked) [Compound 098]", "unit of measure": "%", "remaining activity at 25 µM": 60}
{"compound": "CN1CC(C(=O)O)n2c(c(-c3cccc(C(F)(F)F)c3)c(Cc3ccc(NS(C)(=O)=O)c4ccccc34)cc2=O)S1(=O)=O (centres unmarked) [Compound 067]", "unit of measure": "%", "remaining activity at 25 µM": 67}
{"compound": "Cn1c(=O)c2c(nc(CCCCCCCN3CC(C(=O)O)n4c(c(-c5cccc(C(F)(F)F)c5)c(Cc5cccc6ccccc56)cc4=O)S3(=O)=O)n2C)n(C)c1=O (centres unmarked) [Compound 047]", "unit of measure": "%", "remaining activity at 25 µM": 55}
{"compound": "CN1CC(C(=O)O)n2c(c(-c3cccc(C(F)(F)F)c3)c(Cc3cccc4ccccc34)c(C(O)CO)c2=O)S1(=O)=O (centres unmarked) [Compound 101]", "unit of measure": "%", "remaining activity at 25 µM": 61}
{"compound": "O=C(O)C1COc2c(-c3cccc(C(F)(F)F)c3)c(Cc3cccc4ccccc34)cc(=O)n21 (centres unmarked) [Compound 064]", "unit of measure": "%", "remaining activity at 25 µM": 45}
{"compound": "CN1CC(C(=O)O)n2c(c(-c3cccc(C(F)(F)F)c3)c(Cc3cccc4ccccc34)cc2=O)S1(=O)=O (single isomer, unassigned) [Compound 008a]", "unit of measure": "%", "remaining activity at 25 µM": 71}
{"compound": "O=C(O)C1CSc2c(-c3cccc(C(F)(F)F)c3)c(C(F)(F)c3cccc4ccccc34)cc(=O)n21 (centres unmarked) [Compound 073]", "unit of measure": "%", "remaining activity at 25 µM": 27}
{"compound": "COC(=O)C1CSc2c(-c3cccc(C(F)(F)F)c3)c(Cc3cccc4ccccc34)cc(=O)n21 (centres unmarked) [Compound 012]", "unit of measure": "%", "remaining activity at 25 µM": 108}
{"compound": "Cn1c(=O)c2c(ncn2CCCCCCCN2CC(C(=O)O)n3c(c(-c4cccc(C(F)(F)F)c4)c(Cc4cccc5ccccc45)cc3=O)S2(=O)=O)n(C)c1=O (centres unmarked) [Compound 036]", "unit of measure": "%", "remaining activity at 25 µM": 65}
{"compound": "CNC(=O)CN1CC(C(=O)O)n2c(c(-c3cccc(C(F)(F)F)c3)c(Cc3cccc4ccccc34)cc2=O)S1(=O)=O (centres unmarked) [Compound 049]", "unit of measure": "%", "remaining activity at 25 µM": 74}
{"compound": "CN1CC(C(=O)O)n2c(c(-c3cccc(C(F)(F)F)c3)c(Cc3cccc4ccccc34)c(N)c2=O)S1(=O)=O (centres unmarked) [Compound 074]", "unit of measure": "%", "remaining activity at 25 µM": 28}
{"compound": "Nc1c(Cc2cccc3ccccc23)c(-c2cccc(C(F)(F)F)c2)c2n(c1=O)C(C(=O)O)CS2 (single isomer, unassigned) [Compound 020a]", "unit of measure": "%", "remaining activity at 25 µM": 27}
{"compound": "CCCCCN1CC(C(=O)O)n2c(c(-c3cccc(C(F)(F)F)c3)c(Cc3cccc4ccccc34)cc2=O)S1(=O)=O (single isomer, unassigned) [Compound 025a]", "unit of measure": "%", "remaining activity at 25 µM": 38}
{"compound": "CCCN1CC(C(=O)O)n2c(c(-c3cccc(C(F)(F)F)c3)c(Cc3cccc4ccccc34)c(NC3CCOCC3)c2=O)S1(=O)=O (centres unmarked) [Compound 127]", "unit of measure": "%", "remaining activity at 25 µM": 26}
{"compound": "CCCN1CC(C(=O)O)n2c(c(-c3cccc(C(F)(F)F)c3)c(Cc3cccc4ccccc34)c(CC)c2=O)S1(=O)=O (centres unmarked) [Compound 117]", "unit of measure": "%", "remaining activity at 25 µM": 32}
{"compound": "Nc1c(Cc2cccc3ccccc23)c(-c2cccc(C(F)(F)F)c2)c2n(c1=O)C(C(=O)O)CNS2(=O)=O (centres unmarked) [Compound 082]", "unit of measure": "%", "remaining activity at 25 µM": 51}
{"compound": "CN1CC(C(=O)O)n2c1c(-c1cccc(C(F)(F)F)c1)c(Cc1cccc3ccccc13)c(Br)c2=O (centres unmarked) [Compound 119]", "unit of measure": "%", "remaining activity at 25 µM": 47}
{"compound": "O=C(O)C1CN(CCCCO)S(=O)(=O)c2c(-c3cccc(C(F)(F)F)c3)c(Cc3cccc4ccccc34)cc(=O)n21 (centres unmarked) [Compound 085]", "unit of measure": "%", "remaining activity at 25 µM": 52}
{"compound": "Nc1c(Cc2ccc(N)c3ccccc23)c(-c2cccc(C(F)(F)F)c2)c2n(c1=O)C(C(=O)O)CNS2(=O)=O (centres unmarked) [Compound 041]", "unit of measure": "%", "remaining activity at 25 µM": 75}
{"compound": "CCCc1sc2c(-c3cccc(C(F)(F)F)c3)c(Cc3cccc4ccccc34)cc(=O)n2c1C(=O)O [Compound 061]", "unit of measure": "%", "remaining activity at 25 µM": 44}
